The measurements presented in this section are drawn from patent US20260042731A1.

Reported pest or weed control at 560 g/ha is given for each of the following compounds.
- System: Abutilon theophrasti (ABUTH), velvetleaf
- METHOD_DESCRIPTION: Postemergence herbicide evaluation, growth of Abutilon theophrasti (ABUTH)
- Assay type: in vivo
- STUDY_CONDITIONS: Abutilon theophrasti, post-emergence, 504 h, read-out: AVE. ABUTH
Give the quantity in %, number only.

Some solved entries appear below for comparison.
The reported pest or weed control at 560 g/ha value, Abutilon theophrasti (ABUTH), velvetleaf, for `O=C(COc1ccc(Cl)cc1Cl)OCCCCCCOC(=O)COc1ccc(Cl)cc1Cl` reads 65

Simply: `O=C(COc1ccc(Cl)cc1Cl)OCCCOC(=O)COc1ccc(Cl)cc1Cl` , Abutilon theophrasti (ABUTH), velvetleaf, pest or weed control at 560 g/ha = 27.5

More entries:
Lab entry: Abutilon theophrasti (ABUTH), velvetleaf assay, compound `O=C(COc1ccc(Cl)cc1Cl)Oc1ccc(Cl)cc1` , pest or weed control at 560 g/ha = 97
